# TARGET DESC: T1, human SIRPα v2 on CHOK1 cells (human, UniProt P78324 31-504)
# T1 construct: whole, on cells; also called CHOK1-hSIRPα v2; cell surface human SIRPα v2
# T1 sequence (P78324 other isoform, or with tags, fused parts or gaps limits assumed): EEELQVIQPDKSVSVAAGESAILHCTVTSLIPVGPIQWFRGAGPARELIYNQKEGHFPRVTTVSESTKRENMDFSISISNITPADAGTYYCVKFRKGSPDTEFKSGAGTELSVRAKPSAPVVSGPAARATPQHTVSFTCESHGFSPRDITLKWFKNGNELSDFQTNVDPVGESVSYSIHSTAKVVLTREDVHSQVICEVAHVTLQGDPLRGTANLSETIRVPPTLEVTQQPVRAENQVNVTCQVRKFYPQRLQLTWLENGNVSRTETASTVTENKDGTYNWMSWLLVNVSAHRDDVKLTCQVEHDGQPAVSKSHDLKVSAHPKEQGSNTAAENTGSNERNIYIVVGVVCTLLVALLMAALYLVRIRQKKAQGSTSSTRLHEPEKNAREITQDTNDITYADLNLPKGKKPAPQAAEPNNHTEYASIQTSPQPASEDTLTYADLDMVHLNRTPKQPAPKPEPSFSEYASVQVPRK
# PROCEDURE TEXT: FACS, CHOK1 cells stably expressing human SIRPα v2
Please go through the items and note down their pEC50.
The quantity pEC50 is defined as the negative base-10 logarithm of the molar concentration.

For this binder ( Humanized anti-SIRPα antibody hu025.060 (antibody, V domains shown, Humanized from C25) VH: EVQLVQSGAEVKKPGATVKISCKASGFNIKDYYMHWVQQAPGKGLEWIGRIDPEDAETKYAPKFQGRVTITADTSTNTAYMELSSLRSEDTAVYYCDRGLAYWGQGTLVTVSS VL: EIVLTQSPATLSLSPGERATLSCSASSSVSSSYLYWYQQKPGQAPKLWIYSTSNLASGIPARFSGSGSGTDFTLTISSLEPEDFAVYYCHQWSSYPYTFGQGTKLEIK ), measured pEC50 is 9.10

For this binder ( Humanized anti-SIRPα antibody hu025.023 (antibody, V domains shown, Humanized from C25) VH: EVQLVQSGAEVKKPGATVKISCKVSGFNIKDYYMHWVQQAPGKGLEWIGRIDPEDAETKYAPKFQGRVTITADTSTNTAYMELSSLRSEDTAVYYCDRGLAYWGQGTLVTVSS VL: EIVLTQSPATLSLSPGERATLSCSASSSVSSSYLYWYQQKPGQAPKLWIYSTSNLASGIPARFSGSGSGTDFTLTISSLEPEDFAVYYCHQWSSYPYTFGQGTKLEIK ), measured pEC50 is 9.09

For this binder ( Humanized anti-SIRPα antibody hu025.021 (antibody, V domains shown, Humanized from C25) VH: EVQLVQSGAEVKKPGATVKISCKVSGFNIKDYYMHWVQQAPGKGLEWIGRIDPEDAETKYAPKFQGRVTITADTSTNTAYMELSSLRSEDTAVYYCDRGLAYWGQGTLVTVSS VL: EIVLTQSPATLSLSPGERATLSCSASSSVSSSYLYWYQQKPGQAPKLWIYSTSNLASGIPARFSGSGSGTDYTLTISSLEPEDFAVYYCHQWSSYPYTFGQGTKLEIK ), measured pEC50 is 9.06

For this binder ( Humanized anti-SIRPα antibody hu025.059 (antibody, V domains shown, Humanized from C25) VH: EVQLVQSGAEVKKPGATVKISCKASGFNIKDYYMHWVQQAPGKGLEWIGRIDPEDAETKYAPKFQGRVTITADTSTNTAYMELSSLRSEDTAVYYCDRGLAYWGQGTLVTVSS VL: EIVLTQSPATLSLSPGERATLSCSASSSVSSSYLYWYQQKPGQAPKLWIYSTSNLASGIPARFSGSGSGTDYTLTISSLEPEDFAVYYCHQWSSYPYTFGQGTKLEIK ), measured pEC50 is 9.12

For this binder ( Humanized anti-SIRPα antibody hu025.033 (antibody, V domains shown, Humanized from C25) VH: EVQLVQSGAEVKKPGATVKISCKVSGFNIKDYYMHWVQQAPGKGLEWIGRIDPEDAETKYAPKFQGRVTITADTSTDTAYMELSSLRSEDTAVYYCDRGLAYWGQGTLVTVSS VL: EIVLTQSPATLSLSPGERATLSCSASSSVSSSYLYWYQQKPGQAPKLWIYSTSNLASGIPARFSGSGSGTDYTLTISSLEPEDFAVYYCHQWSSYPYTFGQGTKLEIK ), measured pEC50 is 9.21

For this binder ( Anti-SIRPα antibody C25 (antibody, V domains shown, Mouse variable regions; also called 025c; 025) VH: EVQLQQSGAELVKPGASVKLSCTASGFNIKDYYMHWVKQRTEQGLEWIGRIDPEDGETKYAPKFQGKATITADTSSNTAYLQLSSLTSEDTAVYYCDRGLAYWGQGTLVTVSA VL: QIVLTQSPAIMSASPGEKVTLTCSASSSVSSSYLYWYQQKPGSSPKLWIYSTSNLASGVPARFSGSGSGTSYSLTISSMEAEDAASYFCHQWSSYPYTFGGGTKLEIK ), measured pEC50 is 9.00
